# target: T1, Mouse CLDN18 A2.1 (mouse, UniProt P56857 10-264)
# T1 construct: On transfected HEK293-6E cells; also called Mouse CLDN18 2.1; mouse CLDN18.2 ortholog
# T1 chain: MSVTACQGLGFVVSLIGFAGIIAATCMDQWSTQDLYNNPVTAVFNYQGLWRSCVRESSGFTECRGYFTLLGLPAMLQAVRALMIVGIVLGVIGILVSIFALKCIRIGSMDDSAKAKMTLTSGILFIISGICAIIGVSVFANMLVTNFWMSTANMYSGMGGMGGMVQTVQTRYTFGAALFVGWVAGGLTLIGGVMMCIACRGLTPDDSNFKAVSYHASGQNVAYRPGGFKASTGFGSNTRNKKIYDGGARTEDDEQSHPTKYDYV
# experiment.notes: FACS on transfected HEK293-6E cells, 4 parameter logistic fit
value.type: EC50

[[record]]
binder = "v37408 (antibody, human IgG1, V domains shown, Humanized, recombinant human IgG1-based monoclonal antibody; also called H4-L2) VH: QVQLVESGGGLVQPGGSLRLSCSVSGIDLSSNPMIWVRQAPGKGLEYIGIIDTDGSTYYADWAKGRFTISKDSTTVYLQMNSLRAEDTAVYYCARRLHGSSNGYYDDLWGQGTLVTVSS VL: DGQMTQSPSSVSASVGDRVTITCQASQSIYSYLSWYQQKPGQRPKLLIYKASTLASGVPSRFSGSGSGTDFTLTISSVQPEDAATYYCQQGYTVTNVDKNTFGGGTKVEVK"
observed = "2.65 nM"

[[record]]
binder = "v37407 (antibody, human IgG1, V domains shown, Humanized, recombinant human IgG1-based monoclonal antibody; also called H4-L4) VH: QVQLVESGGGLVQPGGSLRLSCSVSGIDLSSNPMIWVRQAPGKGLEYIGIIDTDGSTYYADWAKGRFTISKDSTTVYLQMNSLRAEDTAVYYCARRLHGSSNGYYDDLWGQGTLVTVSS VL: DGQMTQSPSSVSASVGDRVTITCQASQSIYSYLSWYQQKPGQRPKLLIYKASTLASGVPSRFSGSGSGTDFTLTISSVQPEDFATYYCQQGYTVTNVDKNTFGGGTKVEIK"
observed = "0.8 nM"

[[record]]
binder = "v37410 (antibody, human IgG1, V domains shown, Humanized, recombinant human IgG1-based monoclonal antibody; also called H3-L4) VH: QVQLVESGGGLVQPGGSLRLSCSVSGIDLSSNPMIWVRQAPGKGLQYIGIIDTDGSTYYADWAKGRFTISKDSSKNTVYLQMNSLRAEDTAVYYCARRLHGSSNGYYDDLWGQGTLVTVSS VL: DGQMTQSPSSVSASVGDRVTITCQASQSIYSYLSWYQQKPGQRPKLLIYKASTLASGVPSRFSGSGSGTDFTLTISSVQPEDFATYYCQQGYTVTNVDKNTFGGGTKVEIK"
observed = "1.02 nM"

[[record]]
binder = "v37411 (antibody, human IgG1, V domains shown, Humanized, recombinant human IgG1-based monoclonal antibody; also called H5-L4) VH: QVQLVESGGGLVQPGGSLRLSCSVSGIDLSSNPMIWVRQAPGKGLQYIGIIDTDGSTYYADWAKGRFTISKDSTTVYLQINSPRAEDTAVYYCARRLHGSSNGYYDDLWGQGTLVTVSS VL: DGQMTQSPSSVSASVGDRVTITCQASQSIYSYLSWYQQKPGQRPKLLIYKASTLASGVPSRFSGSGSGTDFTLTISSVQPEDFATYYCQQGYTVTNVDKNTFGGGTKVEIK"
observed = "1.03 nM"

[[record]]
binder = "v35777 (antibody, human IgG1, V domains shown, Rabbit variable regions on human IgG1 (constant region starts at alanine Kabat-114) and human C kappa (starts at arginine Kabat-108); also called parental rabbit chimeric; rabbit-human chimeric IgG1/kappa antibody construct) VH: QSLEESGGRLVTPGTPLTLTCTVSGIDLSSNPMIWVRQAPGKGLQYIGIIDTDGSTYYASWAKGRFTGSKTSTTVDLKITSPTTEDTATYFCARRLHGSSNGYYDDLWGQGTLVTISS VL: DGVMTQTPSSVSAAVGGTVTIKCQASQSIYSYLSWYQQKPGQRPKLLIYKASTLASGVPSRFKGSGSGTEFTLTISGVQCDDAATYYCQQGYTVTNVDKNTFGGGTEVVVK"
observed = "0.87 nM"

[[record]]
binder = "v37409 (antibody, human IgG1, V domains shown, Humanized, recombinant human IgG1-based monoclonal antibody; also called H2-L4) VH: QVQLVESGGGLVQPGGSLRLSCSVSGIDLSSNPMIWVRQAPGKGLEYIGIIDTDGSTYYADWAKGRFTISKDSSKNTVYLQMNSLRAEDTAVYYCARRLHGSSNGYYDDLWGQGTLVTVSS VL: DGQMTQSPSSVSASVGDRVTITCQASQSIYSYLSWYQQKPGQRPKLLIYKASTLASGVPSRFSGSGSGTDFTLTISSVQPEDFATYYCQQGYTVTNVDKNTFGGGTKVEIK"
observed = "0.89 nM"

